logP reference

# smiles.notation, logP
data = [
    ("Clc1cc(Cl)c2c(c1)oc1cc(Cl)c(Cl)cc12", 6.34),
    ("Clc1cccc2c1Oc1c(Cl)c(Cl)c(Cl)c(Cl)c1O2", 6.3),
    ("Clc1cc(Cl)c2c(oc3cccc(Cl)c32)c1Cl", 5.89),
    ("Clc1cc(Cl)c2c(c1)Oc1c(Cl)ccc(Cl)c1O2", 6.25),
    ("Clc1cc(Cl)c2c(c1Cl)Oc1c(Cl)c(Cl)cc(Cl)c1O2", 6.85),
    ("Clc1ccc2oc3cc(Cl)c(Cl)c(Cl)c3c2c1", 6.15),
    ("Clc1ccc2c(c1)Oc1c(Cl)c(Cl)c(Cl)c(Cl)c1O2", 6.6),
    ("Clc1cc2c(cc1Cl)Oc1c(ccc(Cl)c1Cl)O2", 6.38),
    ("Clc1cc(Cl)c2oc3c(Cl)ccc(Cl)c3c2c1Cl", 6.59),
    ("Clc1ccc2c(c1)Oc1c(Cl)cc(Cl)c(Cl)c1O2", 6.25),
    ("Clc1cc(Cl)c2c(c1)oc1ccc(Cl)c(Cl)c12", 6.25),
    ("Clc1cc2c(c(Cl)c1Cl)Oc1cccc(Cl)c1O2", 6.86),
    ("Clc1cc(Cl)c2c(oc3ccc(Cl)c(Cl)c32)c1Cl", 6.51),
]
